# subjectOfTest: CCR1 (Homo sapiens, UniProt P32246)
# Sequence (P32246 1-355): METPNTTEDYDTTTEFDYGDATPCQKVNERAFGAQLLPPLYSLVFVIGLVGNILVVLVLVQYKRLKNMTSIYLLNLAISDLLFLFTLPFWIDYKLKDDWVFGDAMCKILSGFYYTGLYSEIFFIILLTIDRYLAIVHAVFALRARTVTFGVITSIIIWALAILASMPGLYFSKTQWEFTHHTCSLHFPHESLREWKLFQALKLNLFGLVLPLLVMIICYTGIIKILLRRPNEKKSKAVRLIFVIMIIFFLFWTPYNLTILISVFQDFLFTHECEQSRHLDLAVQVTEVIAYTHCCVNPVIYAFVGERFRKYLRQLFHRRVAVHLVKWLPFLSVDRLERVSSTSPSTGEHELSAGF
# assayInfo: Membrane-based NanoBRET competition assay with 12 (2000 nM) and CCR1_Nluc membranes
# Format: binding
# Parameters: Promega pNLF1-C (Nluc) #CCR010TN00; host or cells: HEK293T, transient (PEI)
# conditionSummary: 12 (2000 nM), CCR1_Nluc membranes; read-out: pKi ± SEM, CCR1 (converted)
attributeMeasured: Ki (nM)

Solved entries:
| molecule | subjectOfTest | dataValue |
| --- | --- | --- |
| O=C(C1=C(O)C(=O)N(CCc2ccc(O)cc2)C1c1ccc(F)cc1)c1ccccc1 (single isomer, unassigned; (-)) [(-)-23] | CCR1 (Homo sapiens, UniProt P32246) | 209 |
| O=C(C1=C(O)C(=O)N(CCc2ccc(O)cc2)C1C1CCCCC1)c1ccccc1 (centres unmarked) | CCR1 (Homo sapiens, UniProt P32246) | 219 |
| O=C(C1=C(O)C(=O)N(CCc2cccc(O)c2)C1c1ccc(F)cc1)c1ccccc1 (centres unmarked) | CCR1 (Homo sapiens, UniProt P32246) | 178 |
| O=C(C1=C(O)C(=O)N(Cc2ccc(O)cc2)C1c1ccc(F)cc1)c1ccccc1 (centres unmarked) | CCR1 (Homo sapiens, UniProt P32246) | 120 |
| CC(C)(C)c1ccc(S(=O)(=O)Nc2ccc(Cl)cc2C(=O)c2cc[n+]([O-])cc2)cc1 [compound 21, reference compound] | CCR1 (Homo sapiens, UniProt P32246) | 2950 |
| O=C(C1=C(O)C(=O)N(CCc2ccc(O)cc2)C1c1ccccc1)c1ccccc1 (centres unmarked) | CCR1 (Homo sapiens, UniProt P32246) | 257 |
| O=C(C1=C(O)C(=O)N(CCc2ccc(O)cc2)C1c1cccc(Br)c1)c1ccccc1 (centres unmarked) | CCR1 (Homo sapiens, UniProt P32246) | 178 |
| O=C(C1=C(O)C(=O)N(CCc2ccc(O)cc2)C1c1ccc(Br)cc1)c1ccccc1 (centres unmarked) | CCR1 (Homo sapiens, UniProt P32246) | 182 |
| O=C(C1=C(O)C(=O)N(CCc2ccc(O)cc2)C1c1ccc(Cl)cc1)c1ccccc1 (centres unmarked) | CCR1 (Homo sapiens, UniProt P32246) | 191 |
| CC(C)(C)c1ccc(S(=O)(=O)Nc2ccc(Cl)cc2-c2cncnc2N)cc1 [compound 22, reference compound] | CCR1 (Homo sapiens, UniProt P32246) | 2630 |

a. CC[C@@H](Nc1c(Nc2cccc(C(=O)N(C)C)c2O)c(=O)c1=O)c1ccc(C)o1 [compound 20, reference compound]
b. O=C(C1=C(O)C(=O)N(CCc2ccccc2)C1c1ccc(F)cc1)c1ccccc1 (centres unmarked)
Identify the entry with the larger Ki. Options: a and b Response format: the label of the selected entry.
a
(a: 2240 nM, b: 955 nM)

1. O=C(C1=C(O)C(=O)N(CCc2ccc(F)cc2)C1c1ccc(F)cc1)c1ccccc1 (centres unmarked)
2. CC(C)C[C@H](CO)Nc1nc(S[C@@H](C)c2ccccc2)nc2nc(N)sc12 [compound 18, reference compound]
Identify the entry with the larger Ki. Options: 1 and 2 Response format: the label of the selected entry.
1
